# conditionDetails: 328 K, Capillary rise
Assignment: determine reported surface tension liquid-gas for the given molecules.
Answer in mN/m, number only, no unit symbol.

# input Data request, read-out surface tension liquid-gas, for CCCCn1cc[n+](C)c1.F[B-](F)(F)F [1-butyl-3-methylimidazolium tetrafluoroborate]
# output 41.8

# input Data request, read-out surface tension liquid-gas, for CCCCn1cc[n+](C)c1.[I-] [1-butyl-3-methylimidazolium iodide]
# output 50.7

# input Data request, read-out surface tension liquid-gas, for CCCCCCn1cc[n+](C)c1.[I-] [1-hexyl-3-methylimidazolium iodide]
# output 41.1

====

# conditionDetails: 298 K, Capillary rise
metric: surface tension liquid-gas (mN/m)
Answer in mN/m, number only, no unit symbol.

# input Data request, read-out surface tension liquid-gas, for CCCCn1cc[n+](C)c1.F[B-](F)(F)F [1-butyl-3-methylimidazolium tetrafluoroborate]
# output 43.6

# input Data request, read-out surface tension liquid-gas, for CCCCCCCC[n+]1ccn(C)c1.F[B-](F)(F)F [1-methyl-3-octylimidazolium tetrafluoroborate]
# output 30.7

# input Data request, read-out surface tension liquid-gas, for CCCCCCn1cc[n+](C)c1.F[B-](F)(F)F [1-hexyl-3-methylimidazolium tetrafluoroborate]
# output 39.2

# input Data request, read-out surface tension liquid-gas, for CCCCCCn1cc[n+](C)c1.[I-] [1-hexyl-3-methylimidazolium iodide]
# output 43.5

# input Data request, read-out surface tension liquid-gas, for CCCCn1cc[n+](C)c1.F[P-](F)(F)(F)(F)F [1-butyl-3-methylimidazolium hexafluorophosphate]
# output 47.5

# input Data request, read-out surface tension liquid-gas, for CCCCCCCC[n+]1ccn(C)c1.[Cl-] [1-methyl-3-octylimidazolium chloride]
# output 31.9

# input Data request, read-out surface tension liquid-gas, for CCCCCCn1cc[n+](C)c1.F[P-](F)(F)(F)(F)F [1-hexyl-3-methylimidazolium hexafluorophosphate]
# output 43.4

====

# conditionDetails: 363 K, Capillary rise
metric: surface tension liquid-gas (mN/m)
Answer in mN/m, number only, no unit symbol.

# input Data request, read-out surface tension liquid-gas, for CCCCCCCC[n+]1ccn(C)c1.[Cl-] [1-methyl-3-octylimidazolium chloride]
# output 28.4

# input Data request, read-out surface tension liquid-gas, for CCCCCCn1cc[n+](C)c1.[I-] [1-hexyl-3-methylimidazolium iodide]
# output 38.6

# input Data request, read-out surface tension liquid-gas, for CCCCCCn1cc[n+](C)c1.F[P-](F)(F)(F)(F)F [1-hexyl-3-methylimidazolium hexafluorophosphate]
# output 38.8

# input Data request, read-out surface tension liquid-gas, for CCCCn1cc[n+](C)c1.[Cl-] [1-butyl-3-methylimidazolium chloride]
# output 43.9

# input Data request, read-out surface tension liquid-gas, for CCCCCCn1cc[n+](C)c1.[Cl-] [1-hexyl-3-methylimidazolium chloride]
# output 37.9

# input Data request, read-out surface tension liquid-gas, for CCCCn1cc[n+](C)c1.[I-] [1-butyl-3-methylimidazolium iodide]
# output 47.8

# input Data request, read-out surface tension liquid-gas, for CCCCCCn1cc[n+](C)c1.F[B-](F)(F)F [1-hexyl-3-methylimidazolium tetrafluoroborate]
# output 35.8

# input Data request, read-out surface tension liquid-gas, for CCCCn1cc[n+](C)c1.F[P-](F)(F)(F)(F)F [1-butyl-3-methylimidazolium hexafluorophosphate]
# output 42.8

# input Data request, read-out surface tension liquid-gas, for CCCCCCCC[n+]1ccn(C)c1.F[B-](F)(F)F [1-methyl-3-octylimidazolium tetrafluoroborate]
# output 27.4

# input Data request, read-out surface tension liquid-gas, for CCCCn1cc[n+](C)c1.F[B-](F)(F)F [1-butyl-3-methylimidazolium tetrafluoroborate]
# output 39.8
